# Test system: M14
# PROTOCOL DESCRIPTION: NCI tumour cell line growth inhibition, 48 h
Calls of active or inactive are those of the source. Rule as the data show it: active = GI50 up to about 1.1 µM and inactive = higher.
// one of active, inactive, no free text

1. CCN(CC)CCN(C)CCc1ccc(Br)cc1; inactive
2. COC(=O)c1ccc2cc(O)c(O)cc2c1; inactive
3. NC1=NCC(CN2CCCCC2)O1 (configuration not stated); inactive
4. Nc1cc(CO)cc(Nc2nc3ccc(Cl)cc3c3[nH]c4ccccc4c23)c1; inactive

[in] Record lookup: outcome of this test for CC(C)[Si]1(C(C)C)OCC2OC3(CO)C(Oc4nc(=O)ccn43)C2O[Si](C(C)C)(C(C)C)O1 (configuration not stated) ?
[out] inactive

[in] Record lookup: outcome of this test for Cc1ccc(S(=O)(=O)NC(CO)C(=O)O)cc1 (configuration not stated) ?
[out] inactive

[in] Record lookup: outcome of this test for C[n+]1c2ccccc2c(NC(CCCNC(=N)N)C(=O)O)c2ccccc21 (configuration not stated) ?
[out] inactive

[in] Record lookup: outcome of this test for N=C(N)SCc1ccc2c(c1)Sc1ccccc1O2 ?
[out] inactive

[in] Record lookup: outcome of this test for CC1(C)C=Cc2c(cc3oc4ccc5c(c4c(=O)c3c2O)C=CC(C)(C)O5)O1 ?
[out] inactive

[in] Record lookup: outcome of this test for CC(C)=CCc1c2c(c(O)c3c(=O)c4c(oc13)-c1ccc(O)cc1OC4C=C(C)C)C=CC(C)(C)O2 (configuration not stated) ?
[out] inactive

[in] Record lookup: outcome of this test for COc1ccc(C2CC(C)(O)Oc3cc4c(cc32)OCO4)cc1 (configuration not stated) ?
[out] inactive

* * *

A collection of compounds and their measured GI50
# Tested on: SF-268
# PROTOCOL DESCRIPTION: NCI tumour cell line growth inhibition, 48 h
Active and inactive are the calls of the source. No stated cut-off is given here; in the data, active = GI50 up to about 1.1 µM and inactive = higher.

Field: example entries. Status: answers known.
1) C/C=C(/C)c1cnc(CC(C)C)c(=O)[nH]1; > 100 µM (inactive)
2) CC(=O)Nc1c(S(=O)(=O)c2ccccc2)c(C)c(C)n1CCN(C)C; > 100 µM (inactive)
3) COC(=O)C1=NN2c3ccccc3C(=O)OCCC2C1 (stereo unspecified); > 100 µM (inactive)
4) O=S(=O)(O)c1ccc(/N=N/c2c(O)ccc3ccccc23)cc1; > 100 µM (inactive)

[in] Given the compound Cc1ccc(NCC2(/N=C/c3ccccc3)OC(CO)C(O)C2O)cc1 (stereo unspecified) , what is its reported GI50?
[out] 81.1 µM (inactive)

[in] Given the compound CN(C)CCCNC(=O)c1c(O)c2ccccc2n(C)c1=O , what is its reported GI50?
[out] 49.8 µM (inactive)

[in] Given the compound S=c1nc(N2CCCCC2)c2cn[nH]c2[nH]1 , what is its reported GI50?
[out] 78 µM (inactive)

[in] Given the compound O=C(CC1(O)C(=O)Nc2ccc(Br)cc21)c1cccc([N+](=O)[O-])c1 (stereo unspecified) , what is its reported GI50?
[out] 39 µM (inactive)

[in] Given the compound CC(=O)NNc1nc(C)c(C(/C=C/c2ccc([N+](=O)[O-])cc2)=N/NC(N)=O)s1 , what is its reported GI50?
[out] > 100 µM (inactive)

[in] Given the compound c1ccc2c(c1)N=c1cc3c(cc1N2)=NC12CCCCC1CC1=C(CCCC1)N32 (stereo unspecified) , what is its reported GI50?
[out] 4.55 µM (inactive)

[in] Given the compound COc1ccc2c(c1)C(=O)OCCC2 , what is its reported GI50?
[out] > 100 µM (inactive)

* * *

# Tested on: HL-60
# PROTOCOL DESCRIPTION: NCI tumour cell line growth inhibition, 48 h
Active and inactive are the calls of the source. Cut-off read from the data, not from the text of the source: active = GI50 up to about 1.1 µM and inactive = higher.
// one of 1 (active), 0 (inactive), no free text

As a guide, the following entries are already answered.
1. Cn1cnc([N+](=O)[O-])c1Sc1nc(N)nc2c1ncn2[C@H]1C[C@H](O)[C@@H](CO)O1; 0
2. C1=C(c2ccccc2)SC(N2CCCCC2)S1 (configuration not stated); 0
3. CO/C(=C/C(=O)C(Cl)(Cl)Cl)CC/C(=C\C(=O)C(Cl)(Cl)Cl)OC; 0
4. Cc1cc(C)c2c(=O)cc(-c3ccccc3)[nH]c2c1; 1
5. CC1(C)Oc2ccccc2N2O[C@@H]3C(=O)N(c4ccccc4)C(=O)[C@@H]3C21c1ccccc1 (some centres not stated); 0

[in] Record lookup: outcome of this test for COC(=O)C[C@H](COCc1ccccc1)NC(=O)C[C@H](COCc1ccccc1)NC(=O)C[C@H](COCc1ccccc1)NC(=O)OC(C)(C)C ?
[out] 0

[in] Record lookup: outcome of this test for O=C1/C(=C/c2ccc(O)cc2)NC(=S)N1CN1CCCCC1 ?
[out] 0

[in] Record lookup: outcome of this test for COc1c(/C=C/C=O)cc2c(c1OC)OCO2 ?
[out] 0

[in] Record lookup: outcome of this test for CCOC(=O)NC(NC1=NCCS1)(C(=O)OCC)C(F)(F)F (configuration not stated) ?
[out] 0

[in] Record lookup: outcome of this test for C=C(C[C@@H](O)[C@H](C)NC(=O)OCc1ccccc1)C(=O)OC(C)(C)C ?
[out] 0

[in] Record lookup: outcome of this test for CC1CC(=O)N2CCCNC2=C1C#N (configuration not stated) ?
[out] 0

[in] Record lookup: outcome of this test for COC(=O)[C@@H]1CCc2nc3ccccc3c(=O)n21 ?
[out] 0

[in] Record lookup: outcome of this test for O=C(O)C1c2ccccc2C(C(=O)O)c2ccccc21 (configuration not stated) ?
[out] 0

[in] Record lookup: outcome of this test for CCN(CC)C(=S)N/N=C1\C(=O)Nc2ccccc21 ?
[out] 1

[in] Record lookup: outcome of this test for CN1N=C(N)c2cn(C3OC(COP(=O)(O)O)C(O)C3O)c3ncnc1c23 (configuration not stated) ?
[out] 0

* * *

A collection of compounds and their measured GI50
# Test system: DU-145
# PROTOCOL DESCRIPTION: NCI tumour cell line growth inhibition, 48 h
Activity calls are given as the source filed them. Cut-off read from the data, not from the text of the source: active = GI50 up to about 1.1 µM and inactive = higher.

Field: example entries. Status: answers known.
1. O=C(O)c1nc2ccc(Cl)cc2[nH]c1=O; > 100 µM (inactive)
2. O=C1CCCCN1C(=O)c1ccc([N+](=O)[O-])cc1; > 100 µM (inactive)
3. N#CCC12CC=CCC1=C(O)C(=O)c1ccc(O)cc12 (stereo not given); > 100 µM (inactive)
4. CSc1c(C#N)c(O)n(-c2ccc(C)cc2)c(=O)c1C#N; > 100 µM (inactive)
5. CC1CC(=O)N2CCCNC2=C1C#N (stereo not given); > 100 µM (inactive)
6. COC(=O)C1=C(C)N2[C@H](C(=O)O)CS[C@@]2(C)[C@H](C(=O)OC)[C@H]1c1cccc([N+](=O)[O-])c1; > 100 µM (inactive)
7. N=C(N)NS(=O)(=O)c1ccc(NC(=O)c2ccc3nc4ccccc4c(Nc4ccc(S(N)(=O)=O)cc4)c3c2)cc1; > 100 µM (inactive)
8. CCCCCCCCCCCC[S+](C)C; 1.61 µM (inactive)

[in] Given the compound Cn1cnc([N+](=O)[O-])c1Sc1nc(N)nc2c1ncn2[C@H]1C[C@H](O)[C@@H](CO)O1 , what is its reported GI50?
[out] 1.21 µM (inactive)

[in] Given the compound C=C(C[C@@H](O)[C@H](C)NC(=O)OCc1ccccc1)C(=O)OC(C)(C)C , what is its reported GI50?
[out] 45.7 µM (inactive)

* * *

# Test system: OVCAR-5
# PROTOCOL DESCRIPTION: NCI tumour cell line growth inhibition, 48 h
The source made the active and inactive calls. No stated cut-off is given here; in the data, active = GI50 up to about 1.1 µM and inactive = higher.
A collection of compounds and their measured GI50

Field: example entries. Status: answers known.
1. COC1=C(OC)C(=O)C(Cc2c(Cl)nc3sccn23)=C(C)C1=O; 16.9 µM (inactive)
2. CCOC(=O)CCC(=O)C1c2cccc(O)c2C(=O)c2c(O)cccc21; 1.75 µM (inactive)
3. O=C(/C=C/c1ccc(Cl)cc1)Oc1ccc(C=C2CCC/C(=C\c3ccc(OC(=O)/C=C/c4ccc(Cl)cc4)cc3)C2=O)cc1; > 100 µM (inactive)

[in] Given the compound O=[N+]([O-])c1nccn1COCCF , what is its reported GI50?
[out] > 100 µM (inactive)

[in] Given the compound NC1CC(=O)c2c(Cl)sc(Cl)c21 (stereo not given) , what is its reported GI50?
[out] 19.3 µM (inactive)

* * *

# Tested on: NCI-H460
# PROTOCOL DESCRIPTION: NCI tumour cell line growth inhibition, 48 h
The source made the active and inactive calls. Cut-off read from the data, not from the text of the source: active = GI50 up to about 1.1 µM and inactive = higher.
PROPERTY LABEL: GI50

1. COC(=O)N/N=C(\c1nc2ccc(Cl)cc2nc1O)C(O)c1ccc([N+](=O)[O-])cc1 (centres undefined); > 100 µM (inactive)
2. CCOc1cc2c(cc1O)C=C[C@@H]1[C@@H]2CC[C@]2(C)[C@@H](O)CC[C@@H]12; 2.05 µM (inactive)
3. O=C(c1cc2ccccc2[nH]1)C(O)(c1cc2ccccc2[nH]1)c1cc2ccccc2[nH]1; > 246 µM (inactive)
4. C[C@]12CC(c3ccccc3O1)C(C(=O)NC13CC4CC(CC(C4)C1)C3)C(=O)N2 (some centres undefined); 35.4 µM (inactive)
5. C=C1C(=O)OC2/C=C(\C=O)CC/C=C(\C)C(O)C[C@@H]12 (some centres undefined); 13.3 µM (inactive)

[in] Given the molecule N#C/C(=C/C=C/c1ccco1)C(N)=O , what is its reported GI50?
[out] > 10 µM (inactive)

[in] Given the molecule CC(C)(C)OC(=O)C1=C(O)C(C(=O)OC(C)(C)C)C23CCCCC12C(C(=O)OC(C)(C)C)C(O)=C3C(=O)OC(C)(C)C (centres undefined) , what is its reported GI50?
[out] > 100 µM (inactive)

[in] Given the molecule Cc1ccc(NCC2(/N=C/c3ccccc3)OC(CO)C(O)C2O)cc1 (centres undefined) , what is its reported GI50?
[out] 32.7 µM (inactive)

[in] Given the molecule Cc1cccc(N(CCC#N)S(=O)(=O)c2ccccc2)c1 , what is its reported GI50?
[out] > 100 µM (inactive)
